Tested on: Fibroblast
Protocol Details: Multiplex assay against human fibroblast
Format: toxicity, cell-based
Stated Conditions: 12 h, 10 µM, compound concentration 10 uM, replicate 2
Quantity Name: Population Tubulin-Different-Phenotype (%)
Kindly answer with a numeric value in %, unit omitted.

Item: Cc1noc(-c2ccc(-c3ccc(CC(=O)O)cc3)cc2)c1NC(=O)O[C@H](C)c1ccccc1Cl | Population Tubulin-Different-Phenotype (%): 57

Item: O=C1[C@H](Cc2ccc(O)cc2)N2C(=O)CCN(C(=O)NCc3ccccc3)[C@H]2CN1Cc1cccc2ccccc12 | Population Tubulin-Different-Phenotype (%): 83

Item: Cc1cnc(-c2cc(N3CCN(C(=O)CCS(C)(=O)=O)CC3)ncc2Cl)c(C)c1 | Population Tubulin-Different-Phenotype (%): 37

Item: C[C@H](N)COC(=O)[C@@H](CCCCN)NC(=O)Cc1c(-c2ccc3ccccc3c2)[nH]c2c1ccc1ccccc12 | Population Tubulin-Different-Phenotype (%): 47

Item: CC(=O)Nc1cccc2c1c(Sc1ccc(Cl)cc1)c(C)n2CC(=O)O | Population Tubulin-Different-Phenotype (%): 35

Item: CCCOc1ccc2[nH]cc(C3=CCNCC3)c2n1.Cl | Population Tubulin-Different-Phenotype (%): 59

Item: Cl.NCCc1ccc(O)c(O)c1 [DOPAMINE HYDROCHLORIDE] | Population Tubulin-Different-Phenotype (%): 44

Item: NCCc1cn(S(=O)(=O)c2c(Cl)nc3sccn23)c2ccccc12.O=C(O)C(=O)O | Population Tubulin-Different-Phenotype (%): 89

Item: Cc1c(CC(=O)O)c2cccnc2n1Cc1ccc(S(C)(=O)=O)cc1C(F)(F)F | Population Tubulin-Different-Phenotype (%): 55

Item: CCCCC(=O)N(Cc1ccc(-c2ccccc2-c2nnn[nH]2)cc1)[C@H](C(=O)O)C(C)C | Population Tubulin-Different-Phenotype (%): 51

Item: O=C(CCCc1ccccc1)Nc1nc2ccccc2c(=O)s1 | Population Tubulin-Different-Phenotype (%): 48

Item: CCCCCC(O)/C=C/[C@H]1C(=O)CC(O)C1C/C=C\CCCC(=O)O (stereo partly drawn) | Population Tubulin-Different-Phenotype (%): 41

Item: CC(/C=C1\SC(=S)N(CCCC(=O)Nc2ccc(C(=O)O)c(O)c2)C1=O)=C\c1ccccc1 | Population Tubulin-Different-Phenotype (%): 54

###

Tested on: Fibroblast
Protocol Details: Multiplex assay against human fibroblast
Format: toxicity, cell-based
Stated Conditions: 24 h, 1 µM, compound concentration 1 uM, replicate 1
Label Condition met when Population Healthy Nuclei (%) is at or above 60%; anything below gets Condition not met.

Problem: Does the reported Population Healthy Nuclei (%) for Cc1c(CC(=O)O)c2cccnc2n1Cc1ccc(S(C)(=O)=O)cc1C(F)(F)F [FEVIPIPRANT] fall at or above the 60% mark?
Result: Condition met

Problem: Does the reported Population Healthy Nuclei (%) for NCCc1cn(S(=O)(=O)c2c(Cl)nc3sccn23)c2ccccc12.O=C(O)C(=O)O fall at or above the 60% mark?
Result: Condition met

Problem: Does the reported Population Healthy Nuclei (%) for CN[C@@H](C)C(=O)N[C@H](C(=O)N1CCC[C@H]1C(=O)Nc1snnc1-c1ccccc1)C1CCCCC1 [GDC-0152] fall at or above the 60% mark?
Result: Condition met

More entries:
Problem: Does the reported Population Healthy Nuclei (%) for COc1ccccc1N1CCN(C[C@@H](C(=O)NC(C)(C)C)c2ccccc2)CC1.Cl.Cl fall at or above the 60% mark?
Result: Condition met

Problem: Does the reported Population Healthy Nuclei (%) for CCc1cc2cc(NS(=O)(=O)c3ccc(C#N)cc3)ccc2n(CC)c1=O fall at or above the 60% mark?
Result: Condition met

###

Test system: U2OS
Protocol Details: Multiplex assay against U2OS
Type: toxicity, cell-based
Stated Conditions: human, 24 h, 10 µM, compound concentration 10 uM, replicate 1
Quantity Name: Population Healthy Nuclei (%)
Kindly answer with a numeric value in %, unit omitted.

Observed Population Healthy Nuclei (%) on U2OS, entry Br.CS(=O)(=O)Nc1c(O)ccc2c1CCCC2C1=NCCN1 (stereo not given) , equals 62

Observed Population Healthy Nuclei (%) on U2OS, entry CC(=O)Nc1cccc2c1c(Sc1ccc(Cl)cc1)c(C)n2CC(=O)O , equals 66

Observed Population Healthy Nuclei (%) on U2OS, entry C[C@H](N)COC(=O)[C@@H](CCCCN)NC(=O)Cc1c(-c2ccc3ccccc3c2)[nH]c2c1ccc1ccccc12 , equals 73

Observed Population Healthy Nuclei (%) on U2OS, entry N#Cc1c(Oc2cccc(OS(=O)(=O)CCCC(F)(F)F)c2)cccc1C(F)(F)F , equals 66

Observed Population Healthy Nuclei (%) on U2OS, entry COc1cccc2c1c(NS(=O)(=O)c1ccc(Cl)s1)nn2Cc1cccc(CNC(=O)C(C)(C)O)c1 , equals 64

Observed Population Healthy Nuclei (%) on U2OS, entry NCCc1cn(S(=O)(=O)c2c(Cl)nc3sccn23)c2ccccc12.O=C(O)C(=O)O , equals 38

Observed Population Healthy Nuclei (%) on U2OS, entry CCCCCC(O)/C=C/[C@H]1C(=O)CC(O)C1C/C=C\CCCC(=O)O (stereo not given in full) , equals 66

Observed Population Healthy Nuclei (%) on U2OS, entry Cc1c(CC(=O)O)c2cccnc2n1Cc1ccc(S(C)(=O)=O)cc1C(F)(F)F , equals 70

More entries:
Observed Population Healthy Nuclei (%) on U2OS, entry Cl.N=C(N)NC(=O)Cc1c(Cl)cccc1Cl [GUANFACINE HYDROCHLORIDE] , equals 64

Observed Population Healthy Nuclei (%) on U2OS, entry CN(C)C(=O)Cn1cc(-c2ccc(-c3cncc4ccccc34)cc2)cn1 , equals 64

###

System: HEK-293T
Protocol Details: Multiplex assay against HEK293T
Type: toxicity, cell-based
Stated Conditions: human, 12 h, 10 µM, compound concentration 10 uM, replicate 1
Population Normal (%) overview

Item: CC[C@@H](C)Nc1nc(C)nc2c(-c3ccc(OC)nc3C)c(C)nn12 | Population Normal (%): 91%

Item: O=C1[C@H](Cc2ccc(O)cc2)N2C(=O)CCN(C(=O)NCc3ccccc3)[C@H]2CN1Cc1cccc2ccccc12 | Population Normal (%): 88%

Item: CCCCC1=NC2(CCCC2)C(=O)N1Cc1ccc(-c2ccccc2-c2nnn[nH]2)cc1 | Population Normal (%): 94%

Now consider the entry below.
Item: COc1cccc2c1c(NS(=O)(=O)c1ccc(Cl)s1)nn2Cc1cccc(CNC(=O)C(C)(C)O)c1 | Population Normal (%): 92%

###

Tested on: Fibroblast
Protocol Details: Multiplex assay against human fibroblast
Format: toxicity, cell-based
Stated Conditions: 12 h, 10 µM, compound concentration 10 uM, replicate 1
Flag rule - Population Pyknosed Nuclei (%) less than 20% flags yes; the remaining entries get no.

Below, 6 molecules whose answers are already recorded.
Problem: Population Pyknosed Nuclei (%) strictly < 20% for this molecule? Cc1sc2c(c1C)C(c1ccc(Cl)cc1)=N[C@@H](CC(=O)NCCCCCCCCNC(=O)COc1cccc3c1C(=O)N(C1CCC(=O)NC1=O)C3=O)c1nnc(C)n1-2 (stereo not given in full)
Result: no

Problem: Population Pyknosed Nuclei (%) strictly < 20% for this molecule? CN[C@@H](C)C(=O)N[C@H](C(=O)N1CCC[C@H]1C(=O)Nc1snnc1-c1ccccc1)C1CCCCC1
Result: no

Problem: Population Pyknosed Nuclei (%) strictly < 20% for this molecule? Cc1cccc(NC(=O)CN2CCC(c3ccccn3)CC2)c1.Cl.Cl
Result: yes

Problem: Population Pyknosed Nuclei (%) strictly < 20% for this molecule? CCCCCC(O)/C=C/[C@H]1C(=O)CC(O)C1C/C=C\CCCC(=O)O (stereo not given in full)
Result: yes

Problem: Population Pyknosed Nuclei (%) strictly < 20% for this molecule? CN(C)C(=O)Cn1cc(-c2ccc(-c3cncc4ccccc34)cc2)cn1
Result: yes

Problem: Population Pyknosed Nuclei (%) strictly < 20% for this molecule? O=C(NCCN1CCC(n2c(=O)[nH]c3cc(Cl)ccc32)CC1)c1ccc(F)cc1 [HALOPEMIDE]
Result: no

More entries:
Problem: Population Pyknosed Nuclei (%) strictly < 20% for this molecule? Cl.NCCc1ccc(O)c(O)c1 [DOPAMINE HYDROCHLORIDE]
Result: no

Problem: Population Pyknosed Nuclei (%) strictly < 20% for this molecule? Cl.N=C(N)NC(=O)Cc1c(Cl)cccc1Cl [GUANFACINE HYDROCHLORIDE]
Result: yes

Problem: Population Pyknosed Nuclei (%) strictly < 20% for this molecule? CC(C)COc1ccc(CNC(=O)N(Cc2ccc(F)cc2)C2CCN(C)CC2)cc1
Result: yes

###

System: HEK-293T
Protocol Details: Multiplex assay against HEK293T
Type: toxicity, cell-based
Stated Conditions: human, 12 h, 10 µM, compound concentration 10 uM, replicate 2
Population Tubulin-Different-Phenotype (%) overview
Kindly answer with a numeric value in %, unit omitted.

The examples below pair each entry with its known result.
Item: O=C1[C@H](Cc2ccc(O)cc2)N2C(=O)CCN(C(=O)NCc3ccccc3)[C@H]2CN1Cc1cccc2ccccc12 | Population Tubulin-Different-Phenotype (%): 67

Item: Br.CS(=O)(=O)Nc1c(O)ccc2c1CCCC2C1=NCCN1 (stereo not given) | Population Tubulin-Different-Phenotype (%): 26

Item: Cc1cccc(NC(=O)CN2CCC(c3ccccn3)CC2)c1.Cl.Cl | Population Tubulin-Different-Phenotype (%): 35

Item: CCC(=O)N1CCN(c2ccc(-n3c(=O)ccc4cnc5ccc(-c6cnc7ccccc7c6)cc5c43)cc2C(F)(F)F)CC1 | Population Tubulin-Different-Phenotype (%): 37

More entries:
Item: CN(C)C(=O)Cn1cc(-c2ccc(-c3cncc4ccccc34)cc2)cn1 | Population Tubulin-Different-Phenotype (%): 43

Item: CC[C@@H](C)Nc1nc(C)nc2c(-c3ccc(OC)nc3C)c(C)nn12 | Population Tubulin-Different-Phenotype (%): 55

Item: CC(/C=C1\SC(=S)N(CCCC(=O)Nc2ccc(C(=O)O)c(O)c2)C1=O)=C\c1ccccc1 | Population Tubulin-Different-Phenotype (%): 26

Item: Cc1cnc(-c2cc(N3CCN(C(=O)CCS(C)(=O)=O)CC3)ncc2Cl)c(C)c1 | Population Tubulin-Different-Phenotype (%): 39

Item: O=C(CCCc1ccccc1)Nc1nc2ccccc2c(=O)s1 | Population Tubulin-Different-Phenotype (%): 26

Item: CCCCCC(O)/C=C/[C@H]1C(=O)CC(O)C1C/C=C\CCCC(=O)O (stereo not given in full) | Population Tubulin-Different-Phenotype (%): 25
